Origin of measurements: patent US20170165338A1

ASSAYED SYSTEM: HLA-A*24 (human)
PROTOCOL DESCRIPTION: UV-exchange b2m ELISA
Entries and their measured peptide exchange yield follow.

{"BINDER": "KYPVEWAKF", "RECORDED METRIC": "peptide exchange yield", "READING": "> 75%"}
{"BINDER": "HYPPVQVLF", "RECORDED METRIC": "peptide exchange yield", "READING": "50 to 75%"}
{"BINDER": "PYRLIFEKF", "RECORDED METRIC": "peptide exchange yield", "READING": "20 to 49%"}
{"BINDER": "MYDSYWRQF", "RECORDED METRIC": "peptide exchange yield", "READING": "> 75%"}

Pending binder:
Exercise: // fetch peptide exchange yield given entry AYLHSHALI
Solution: > 75%
